These measurements were taken from patent US20190194358A1.

Reported fold enhancement in SPR binding response relative to TNF1 values follow for various binders
biological target: T1, Tumor Necrosis Factor-alpha (UniProt P01375 77-233); assay: SPR (Biacore A100) point-mutant screen at 50 µM peptide
T1 construct: Immobilised on pipette tips or SPR chips (amine coupling or biotin capture); also called TNF-α; TNF-alpha
T1 sequence (P01375 77-233 limits assumed): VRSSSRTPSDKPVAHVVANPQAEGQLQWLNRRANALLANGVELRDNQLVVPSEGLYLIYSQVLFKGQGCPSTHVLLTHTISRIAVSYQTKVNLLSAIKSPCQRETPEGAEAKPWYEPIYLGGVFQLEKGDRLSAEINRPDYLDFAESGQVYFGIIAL

I'd like to know its fold enhancement in SPR binding response relative to TNF1. The binder in question is FERYPLMMPWSFLQSRQGSC [TNF1 D4Y point-mutant]
≥ 15 fold
